Reported Specific activity, esterase E015 is given for each of the following molecules.
# System: esterase E015
# Assay text: Initial screening of ThermoGen esterases toward esters 1-31 (pH indicator), specific activity
# Assay type: biochemical
# Condition set: 1 mM substrate, pH 7.2, 7 vol % acetonitrile, 25° C.
Measurement type: Specific activity, esterase E015

Molecule: CCCCCCCC(=O)OCC [Substrate 15]
Measurement type: Specific activity, esterase E015
Recorded result: 120 mmol ester hydrolyzed/min/mg protein
//
Molecule: NC(Cc1ccccc1)C(=O)Oc1ccc([N+](=O)[O-])cc1.O=C(O)C(F)(F)F (racemic) [Substrate 3, reference compound]
Measurement type: Specific activity, esterase E015
Recorded result: 280 mmol ester hydrolyzed/min/mg protein
//
Molecule: CCCC(=O)OCC(COC(=O)CCC)OC(=O)CCC [Substrate 29]
Measurement type: Specific activity, esterase E015
Recorded result: 550 mmol ester hydrolyzed/min/mg protein
//
Molecule: CC(C(=O)Oc1ccc([N+](=O)[O-])cc1)c1ccccc1 (racemic) [Substrate 1, (±)-4-nitrophenyl-2-phenylpropanoate, reference compound]
Measurement type: Specific activity, esterase E015
Recorded result: 89 mmol ester hydrolyzed/min/mg protein
//
Molecule: CCCC(=O)OCC1CO1 (stereo not shown) [Substrate 30]
Measurement type: Specific activity, esterase E015
Recorded result: 3.2 mmol ester hydrolyzed/min/mg protein
//
Molecule: CC(=O)Oc1ccccc1 [Substrate 26]
Measurement type: Specific activity, esterase E015
Recorded result: 320 mmol ester hydrolyzed/min/mg protein
